# PROTOCOL_DETAILS: Pharmacokinetic study of Example 1 in mouse (IV, IP, PO)
# Assay type: in vivo, Male C57BL/6 Mouse
# CONDITION_CONTEXT: male, C57BL/6, mouse, plasma, po, 30 mg/kg, PO 30 mg/kg; individual mice M7-M9; read-out: T1/2 (converted)

- SMILES_INPUT: "Cc1ccc(Nc2nc(N/N=C/c3c[nH]c4ccccc34)nc(N3CCOCC3)n2)cc1"
  half-life: "1.31 h"

###

# PROTOCOL_DETAILS: Pharmacokinetic study of Example 3 in mouse (IV, IP)
# Format: in vivo, C57 Mouse
# CONDITION_CONTEXT: C57, mouse, plasma, intravenous, 5 mg/kg, 5 mg/kg IV; 1.00 h; individual animals 101M-103M; read-out: Plasma concentrations

- COMPOUND: "Cc1ccc(Nc2nc(N/N=C/c3c[nH]c4ccccc34)cc(N3CCOCC3)n2)cc1 [Example 3]"
  concentration at 1 h: "1350 ng/mL"
